assay: Enzymatic hydrolysis by dog aqueous humor (procedure C); assay type: in vitro ADME; conditions: one hour, read-out: hydrolyzed in aqueous humor after one hour
reportedMetric: metabolised at 1 h (%)
Record the value in %, omitting the unit from your answer.

q: Please give the documented metabolised at 1 h of COC(=O)c1ccccc1OCC(O)CNCCNC(=O)Cc1ccccc1 (stereo not shown) [III]
a: 0

----------
Assay: Half-life in dog whole blood (procedure D)
Assay type: in vitro ADME
Details: 37° C., read-out: T1/2 dog blood
Experimental: In each experiment, 1 ml of a solution containing 50 μg of the test compound was added to 1 ml of whole blood or 1 ml of a 33% (w/v) liver homogenate. […] After centrifugation to sediment denatured proteins, 2 ml of the supernatant was removed and analyzed by high pressure liquid chromatography, using a mobile phase of 60% acetonitrile/40% 0.05 M sodium phosphate buffer (pH 6.6), a U.V. detector and Waters μ Bondapak Phenyl column. […]
Hi there, I'd appreciate the recorded half-life for every entry that follows.
Lab book: enter the figure in h, no units written.

q: Fill in reported half-life for this entry: COC(=O)c1ccccc1OCC(O)CNCCNC(=O)C(C)C (stereo not shown)
a: 1.03

q: Entry COC(=O)c1ccccc1OCC(O)CNCCNC(=O)Cc1ccccc1 (stereo not shown) needs its half-life filled in; supply it.
a: 1.22

q: Respond only with half-life recorded for COC(=O)c1ccccc1OCC(O)CNCCNC(C)=O (stereo not shown)
a: 1.03
